These data points were gathered from PubChem BioAssay (NCATS).

Tested on: Es-2
experimental_details: Primary qHTS to identify gynecologic anti-cancer compounds using libraries of approved drugs and bioactive compounds (AID 1345084); note: % is set by controls: 0 for no effect and ±100 for the full control effect; nearly all actives have a fitted effect of over 55% in size
settings: Gynecologic cancer cell panel viability, ATPlite luminescence, 48 h; series mostly up to 57.5 µM
Results filed as inconclusive are left out. Active and inactive are the calls of the source. Calls come from the whole dose curve; as a rule, active = well fitted cell-killing curve with a large enough effect; inconclusive = small, poorly fitted or top-dose-only effect, or effect the other way; inactive = flat fitted curve, though single readings scatter.
assay_metric: activity change, negative = cytotoxicity

Please look up its activity change, negative = cytotoxicity: C[C@@H]1O[C@@H](O[C@H]2[C@H](OC(=O)[C@]34CCC(C)(C)C[C@H]3C3=CCC5[C@@]6(C)C[C@@H](O)[C@@H](O[C@@H]7O[C@H](CO)[C@@H](O)[C@H](O)[C@H]7O)[C@@](C)(CO)C6[C@H](O)C[C@@]5(C)[C@]3(C)CC4)OC[C@H](O)[C@@H]2O)[C@H](O)[C@H](O[C@@H]2OC[C@](O)(CO)[C@H]2O)[C@H]1O[C@@H]1OC[C@@H](O)[C@H](O[C@H]2O[C@H](C)[C@@H](O)[C@H](O)[C@@H]2O)[C@H]1O (some centres not stated)
-2.14% [at 6.55 µM] (inactive)

====

System: KB-3-1
experimental_details: Cytotoxic Profiling of Annotated Libraries Using Quantitative High-Throughput Screening (AID 1296008); note: % is set by controls: 0 for no effect and ±100 for the full control effect; nearly all actives have a fitted effect of over 60% in size
settings: Five cell lines viability, CellTiter-Glo ATP luminescence, 48-72 h; stronger effect = lower value
Inconclusive results are not listed.
I'd be grateful if you could share measured max response for these entries.
One number for each entry, in %.

Sample records with max response:
compound: Cc1ccc2nc(NC(=O)CSc3nc4c(c(=O)n3-c3ccc(F)cc3)SCC4)sc2c1
unit_of_measurement: %
measured_value: 9.39
//
compound: CC1CCC2(C)CCC3(C)C(=CCC4C5(C)CCC(O)C(C)(C(=O)O)C5CCC43C)C2C1C (stereo unspecified)
unit_of_measurement: %
measured_value: 8.86
//
compound: C=C1CCC2C(C)(C)CC(=O)CC2(C)C1CCC(C)CCO (stereo unspecified)
unit_of_measurement: %
measured_value: 0.95
//
compound: CC(C)Oc1ccc(-c2nc(-c3cccc4c3CCC4NCCC(=O)O)no2)cc1C#N (stereo unspecified)
unit_of_measurement: %
measured_value: 8.29
//
compound: COC(=O)C[C@H]1C(C)(C)[C@H](OC(=O)C(C)C)C2CC3=C4CC(=O)O[C@@H](c5ccoc5)[C@]4(C)CCC3[C@@]1(C)C2=O (stereo partly specified)
unit_of_measurement: %
measured_value: -0.987
//
compound: C=C(CCO)C(=O)OCC1OCC(OC(=O)C(=C)CCO[C@@H]2O[C@H](COC(=O)C(=C)CCO[C@@H]3O[C@H](CO)[C@@H](O)[C@H](O)[C@H]3O)[C@@H](O)[C@H](O)[C@H]2O)C(O)C1O (stereo partly specified)
unit_of_measurement: %
measured_value: 0.844

Consider the following items and state reported max response for each.
1. CC(C)(O)C1CCC2(C)CCCC(C)(O)C2C1 (stereo unspecified)
2. CC[C@@H]1C(=O)O[C@]23C=C[C@@H]4C(C(=O)OC)=CO[C@H](O[C@@H]12)[C@@H]43
3. C[C@@H]1O[C@@H](OC2C(CO)OC(OCC3OC(OC(=O)[C@]45CCC(C)(C)CC4C4=CCC6[C@@]7(C)CC[C@@H](O)[C@](C)(C(=O)O)C7CC[C@@]6(C)[C@]4(C)CC5)C(O)C(O)C3O)C(O)C2O)[C@H](O)[C@H](O)[C@H]1O (stereo partly specified)

8.99
-9.89
-3.25

Consider the following items and state reported max response for each.
1. COc1ccc(C2OCC3C(c4cc(OC)c5c(c4)OCO5)OCC23)cc1OC (stereo unspecified)
2. CC(=O)OC1(C)CC(O)C2(O)C=COC(OC3OC(CO)C(O)C(O)C3O)C12 (stereo unspecified)
3. CC1=C2C[C@@]3(C)C(CCC[C@@H]3C)C(O)C2(O)OC1=O (stereo partly specified)
4. CC(O)C(O)/C=C/C=C/C(=O)O[C@@H]1C=C(C(=O)O)[C@](O)(CO)[C@@]2(C)CCCC(C)(C)[C@H]12 (stereo partly specified)
5. Cc1c(NC(=O)N2CCOCC2)ccc2c1c1ccccc1n2C(C)C
6. CC1(C)CC[C@]2(C(=O)O[C@@H]3O[C@H](CO)[C@@H](O)[C@H](O)[C@H]3O)CC[C@]3(C)C(=CCC4[C@@]5(C)C[C@H](O)[C@H](O[C@@H]6OC[C@@H](O)[C@H](O)[C@H]6O)[C@@](C)(CO)C5CC[C@]43C)C2C1 (stereo partly specified)

[-4.07, 3.54, -14, 4.17, 3.33, 9.53]

Please look up its max response: CC(=O)OC1C(O)C(C)(O)C(/C=C/C(=O)O)C2(C)CCCC(C)(C)C12 (stereo unspecified)
6.25
